Cited source: PubChem BioAssay AID1645838

assay: supercomplex reporter luminescence per Hoechst cell count – Hoechst nuclei count (AID 1645838); settings: Cells, luminescence/Hoechst cell count ratio, measured here: cell number, Hoechst nuclei count, library stock concentration (final well concentration not given) 46 uM;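 further: control cybrid cells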
The whole screen tested about 2,000 compounds, of which about 100 (5%) were called active. For the sample, actives were picked, then their nearest neighbours and some compounds at random. Positions of bridges follow the written chain, without caps; N, C: chain ends. Non-standard residues stand in square brackets, D forms with d. Residues, ends and D or L forms follow the SMILES beside them. hArg = N=C(N)NCCCC[CH](N)C(=O)O; Mpa = O=C(O)CCS
So I've got a bunch of compounds here, and I need their cell count values.
Number only, please.

Sample COc1cccc(OC)c1-c1ccc(CC(NC(=O)c2c(Cl)cccc2Cl)C(=O)O)cc1 (stereo not drawn) — what was its cell count? 5760

May I ask what cell count has been recorded for CC1CC2OC2C=CC=CC(=O)Cc2c(Cl)c(O)cc(O)c2C(=O)O1 (stereo not drawn) ? 7560

I'd like to know its cell count. The compound in question is CC(Sc1nc2ccccc2[nH]1)C(=O)NN=Cc1cc(Br)ccc1O (stereo not drawn) 7560

Quick check: cell count of CCOC(=O)C(N)Cc1ccc(-c2cc(OC(c3ccc(Cl)cc3-n3ccc(C)n3)C(F)(F)F)nc(N)n2)cc1 (stereo not drawn) ? 6360

State the recorded cell count for this entry: `COc1ccccc1Oc1c(NS(=O)(=O)c2ccc(C)cn2)nc(-c2ccncc2)nc1OC` 7280

Field request: cell count | item: Nc1nccc2c1ncn2C1C=C(CO)C(O)C1O (stereo not drawn) 5790

Reported cell count for NC(=O)C1CSSCCC(=O)NC(CCCCN=C(N)N)C(=O)NCC(=O)NC(CC(=O)O)C(=O)NC(Cc2c[nH]c3ccccc23)C(=O)N2CCCC2C(=O)N1 (stereo not drawn) ([Mpa][hArg]GDWPC-NH2; disulfide 1-7; configuration not given here) : what is it? 5770

Quick one: cell count of Cn1c2cc(S(C)=O)sc2c2cnn(Cc3cccc(N)c3)c(=O)c21 (stereo not drawn) ? 6150
